A collection of compounds and their measured TGI
Tested on: UO-31 renal
Assay: NCI tumour cell line growth inhibition, 48 h

{"SMILES REPRESENTATION": "CN(C)CCn1cc(-c2ccc3c(Nc4ccc(CC(=O)Nc5cccc(F)c5)cc4)ncnc3c2)cn1", "TGI": "> 10 µM"}
{"SMILES REPRESENTATION": "Cc1cc(Cl)ccc1N1C(=O)C(=O)C(c2nc3ccccc3s2)C(=O)C1=O", "TGI": "> 100 µM"}
{"SMILES REPRESENTATION": "CCOC(=O)/C(O)=C(\\C=N\\C(=S)Nc1ccc(Cl)c(Cl)c1)C(=O)OCC", "TGI": "> 100 µM"}
{"SMILES REPRESENTATION": "CCOC(=O)Nc1ccc(S(=O)(=O)Nc2ccc(Br)cc2)cc1", "TGI": "> 100 µM"}
{"SMILES REPRESENTATION": "CCOC(=O)c1cc(-c2ccc(OC)c(OC)c2)cn1C", "TGI": "> 10 µM"}
{"SMILES REPRESENTATION": "CC(=O)OCc1ccc(-c2nc(C#N)c(N)o2)o1", "TGI": "> 10 µM"}

Form field - read-out: TGI; system: UO-31 renal; submitted item: O=[N+]([O-])c1ccccc1S(=O)(=O)N1CCCc2cc(Cl)ccc21
> 100 µM
